Kindly supply the reported phosphorylation enrichment values for the records listed here.
target: MERTK (UniProt Q12866); experiment: phosphorylation enrichment, bacterial display (enrichment ratio); higher = better substrate or ligand; peptides without Tyr show the background
Sequence (Q12866 whole entry, looked up): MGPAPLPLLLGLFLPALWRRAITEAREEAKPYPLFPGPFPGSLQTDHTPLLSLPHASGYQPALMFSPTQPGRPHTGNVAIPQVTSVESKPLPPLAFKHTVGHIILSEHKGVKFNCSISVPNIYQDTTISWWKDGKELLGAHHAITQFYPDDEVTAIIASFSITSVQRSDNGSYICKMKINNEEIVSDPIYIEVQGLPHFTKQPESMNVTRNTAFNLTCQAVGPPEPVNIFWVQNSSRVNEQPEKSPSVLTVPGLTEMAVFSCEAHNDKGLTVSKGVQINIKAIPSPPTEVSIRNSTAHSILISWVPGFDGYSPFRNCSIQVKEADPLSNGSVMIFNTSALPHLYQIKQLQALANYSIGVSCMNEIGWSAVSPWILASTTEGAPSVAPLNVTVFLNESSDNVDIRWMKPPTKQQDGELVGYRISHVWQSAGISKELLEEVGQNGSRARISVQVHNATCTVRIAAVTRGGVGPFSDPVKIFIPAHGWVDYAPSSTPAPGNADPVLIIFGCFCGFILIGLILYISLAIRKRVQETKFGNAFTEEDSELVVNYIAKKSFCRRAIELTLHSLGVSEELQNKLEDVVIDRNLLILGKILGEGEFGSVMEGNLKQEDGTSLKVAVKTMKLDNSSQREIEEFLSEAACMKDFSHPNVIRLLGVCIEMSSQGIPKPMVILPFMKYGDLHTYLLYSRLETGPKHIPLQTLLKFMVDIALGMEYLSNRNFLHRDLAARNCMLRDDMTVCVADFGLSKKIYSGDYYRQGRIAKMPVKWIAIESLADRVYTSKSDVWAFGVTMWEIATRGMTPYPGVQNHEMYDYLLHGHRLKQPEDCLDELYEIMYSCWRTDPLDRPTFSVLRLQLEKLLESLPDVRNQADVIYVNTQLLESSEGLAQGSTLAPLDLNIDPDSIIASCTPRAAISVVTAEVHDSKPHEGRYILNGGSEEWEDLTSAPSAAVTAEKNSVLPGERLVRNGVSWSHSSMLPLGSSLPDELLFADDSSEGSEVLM
Numbers only.

As a guide, the following entries are already answered.
sequence-string	system-tested	phosphorylation enrichment
SGVVPYEPPEV [TP53_Y220_V216G]	MERTK (UniProt Q12866)	0.443
KASIMYPSSNC [CXCL11_Y52_N55S]	MERTK (UniProt Q12866)	0.395
GVYSRHFTTYD [CLCA1_Y661_Y661H]	MERTK (UniProt Q12866)	0.569
LKTNCYNNGKD [DNMT3B_Y404]	MERTK (UniProt Q12866)	0.601
QLCVNYPGGYT [PROS1_Y259]	MERTK (UniProt Q12866)	0.513
GRTNICKNKKD [SLC26A3_Y520_Y520C]	MERTK (UniProt Q12866)	0.366

Would you kindly look at the next entry?
Item SFPREYGSQEG [RBM10_Y48_YF] has what recorded phosphorylation enrichment?
0.48

---

I'd appreciate it if you could supply phosphorylation enrichment values for the items below.
molecular target: Jak2 (UniProt O60674); test: phosphorylation enrichment, bacterial display (enrichment ratio); higher = better substrate or ligand; peptides without Tyr show the background
Sequence (O60674 whole entry, looked up): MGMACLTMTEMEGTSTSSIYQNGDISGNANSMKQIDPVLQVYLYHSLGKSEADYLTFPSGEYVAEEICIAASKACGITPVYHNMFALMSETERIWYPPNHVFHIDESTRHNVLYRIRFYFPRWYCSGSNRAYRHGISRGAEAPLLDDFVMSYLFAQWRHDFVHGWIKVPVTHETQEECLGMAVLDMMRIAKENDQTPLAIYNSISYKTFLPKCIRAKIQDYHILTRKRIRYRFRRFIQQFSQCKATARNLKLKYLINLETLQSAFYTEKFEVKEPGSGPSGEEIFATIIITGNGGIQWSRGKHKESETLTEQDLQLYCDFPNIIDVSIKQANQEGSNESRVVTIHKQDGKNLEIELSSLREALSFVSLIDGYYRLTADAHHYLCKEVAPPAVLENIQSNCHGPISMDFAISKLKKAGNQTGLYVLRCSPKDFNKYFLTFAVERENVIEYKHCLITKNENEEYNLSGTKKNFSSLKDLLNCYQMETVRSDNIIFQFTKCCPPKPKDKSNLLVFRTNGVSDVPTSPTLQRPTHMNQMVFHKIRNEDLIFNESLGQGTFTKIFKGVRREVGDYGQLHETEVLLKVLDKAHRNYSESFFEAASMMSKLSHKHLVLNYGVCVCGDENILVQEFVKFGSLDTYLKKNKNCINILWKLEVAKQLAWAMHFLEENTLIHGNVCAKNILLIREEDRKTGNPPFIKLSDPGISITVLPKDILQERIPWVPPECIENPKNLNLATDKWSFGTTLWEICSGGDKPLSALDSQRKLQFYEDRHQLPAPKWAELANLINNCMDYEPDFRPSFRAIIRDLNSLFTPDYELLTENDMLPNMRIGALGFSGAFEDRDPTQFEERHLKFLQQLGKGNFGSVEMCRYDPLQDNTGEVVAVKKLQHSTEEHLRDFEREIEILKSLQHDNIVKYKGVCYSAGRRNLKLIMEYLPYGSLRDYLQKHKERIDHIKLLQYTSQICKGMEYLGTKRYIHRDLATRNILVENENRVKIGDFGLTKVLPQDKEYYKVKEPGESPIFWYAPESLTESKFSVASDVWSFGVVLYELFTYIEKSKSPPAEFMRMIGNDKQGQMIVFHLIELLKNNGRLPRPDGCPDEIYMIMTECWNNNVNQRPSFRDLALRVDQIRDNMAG
One number for each entry.

Previously resolved entries follow.
sequence-string	phosphorylation enrichment
EEGESDVCSSD [DCX_Y125_Y125D]	0.797
FTNRNYDLDYD [MYC_Y12]	1.3

# context switch: different sequence, same phosphorylation enrichment
Tell me the measured phosphorylation enrichment of DTLLEYLENPK [CYCS_Y68_M66L] , please.
1.04

---

target: EPHB2 (UniProt P29323); experiment: phosphorylation enrichment, bacterial display (enrichment ratio); higher = better substrate or ligand; peptides without Tyr show the background
Sequence (P29323 whole entry, looked up): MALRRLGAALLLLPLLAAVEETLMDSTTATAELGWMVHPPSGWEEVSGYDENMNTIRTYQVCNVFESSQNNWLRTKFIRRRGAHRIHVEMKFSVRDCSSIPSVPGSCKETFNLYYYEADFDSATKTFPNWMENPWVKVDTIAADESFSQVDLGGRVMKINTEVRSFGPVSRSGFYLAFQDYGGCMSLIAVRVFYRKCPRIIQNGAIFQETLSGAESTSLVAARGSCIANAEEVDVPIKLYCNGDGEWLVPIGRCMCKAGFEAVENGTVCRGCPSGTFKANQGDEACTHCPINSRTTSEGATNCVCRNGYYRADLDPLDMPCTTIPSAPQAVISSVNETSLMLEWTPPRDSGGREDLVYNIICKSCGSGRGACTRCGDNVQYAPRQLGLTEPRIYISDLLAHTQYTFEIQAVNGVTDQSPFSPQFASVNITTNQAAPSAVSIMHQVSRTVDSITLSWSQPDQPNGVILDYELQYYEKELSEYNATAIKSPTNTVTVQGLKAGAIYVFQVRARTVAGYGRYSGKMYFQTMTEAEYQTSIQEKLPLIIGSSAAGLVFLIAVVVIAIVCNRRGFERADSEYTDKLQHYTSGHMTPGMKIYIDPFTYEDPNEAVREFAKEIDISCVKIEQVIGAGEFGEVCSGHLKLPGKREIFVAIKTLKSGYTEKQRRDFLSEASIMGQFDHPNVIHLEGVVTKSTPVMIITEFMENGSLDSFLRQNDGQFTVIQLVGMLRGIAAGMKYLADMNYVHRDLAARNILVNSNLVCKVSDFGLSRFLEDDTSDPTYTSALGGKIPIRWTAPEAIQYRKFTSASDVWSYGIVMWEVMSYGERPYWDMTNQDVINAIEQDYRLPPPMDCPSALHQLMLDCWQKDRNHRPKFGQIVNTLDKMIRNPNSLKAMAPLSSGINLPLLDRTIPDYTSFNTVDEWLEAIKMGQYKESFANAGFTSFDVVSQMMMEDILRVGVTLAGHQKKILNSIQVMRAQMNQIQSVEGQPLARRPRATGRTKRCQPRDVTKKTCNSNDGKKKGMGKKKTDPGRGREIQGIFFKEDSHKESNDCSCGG
readout-label: phosphorylation enrichment
One number for each entry.

Use these answered entries as a reference point.
sequence-string	phosphorylation enrichment
FKWAVYCIIGR [NUP93_Y391_R388W_YF]	0.673
PNATLYKMSSI [SERPINA7_Y40]	0.325
LGPSDYFGEIA [PRKAR1A_Y323]	0.727
GSIQQYTFKQE [PRG4_Y1271_I1272T_YF]	0.451
VVEDGYEFFAK [PPP1CB_Y254]	0.792

Need phosphorylation enrichment for each of these sequences.
1. RHSGSYFVTSV [APC_Y2838_L2839F]
2. YPPDGYSRHYE [CTNND1_Y213]
3. NTFEKYWPFFQ [GATM_Y103_YF]
4. EYGRRYGFSCQ [CCDC93_Y209_R213C]

1: 0.654; 2: 0.394; 3: 0.512; 4: 0.594

---

Hi there, I'd appreciate the recorded SH2 binding enrichment for every entry that follows.
biological target: c-Src SH2; experiment: SH2 binding enrichment of the phosphorylated peptide, bacterial display (enrichment ratio); higher = better substrate or ligand; peptides without Tyr show the background;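 note: peptide library displayed on the E. coli surface as eCPX fusions, selected cells deep-sequenced, score is each peptide's frequency after selection divided by its frequency in the input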
Give bare numbers.

sequence-string	value-reported
RRGMPYGGHGD [TGM1_Y312_R315H]	0.415
SDLTDYLMKIL [ACTA1_Y190_R185S]	0.608

Batch: SH2 binding enrichment for all items listed.
1. QDGYSYPSRQM [LDLR_Y847]
2. GRVLGYGAFRK [FLT4_Y853_G857R]
3. HKNNNYEPSLF [BRCA2_Y57_N60S]
4. PTDCVYVMPTV [MYO7A_Y1668_S1666C]
5. CPFNLYAEQFS [HGD_Y40_L44F_YF]
6. IHETTHNSIMK [ACTA1_Y281_Y281H]

[6.19, 0.549, 0.866, 0.642, 0.66, 0.43]

Record SH2 binding enrichment per entry; entries follow.
1. TSNQEYLYLSM [FGFR1_Y766_D768Y]
2. QDRTFYERVRT [SPEN_Y633_S635R_YF]
3. RRERLYGGGGG [FUS_Y526_P525L]
4. SVVVPNEPPEV [TP53_Y220_Y220N]
5. EFKKHYGYSLY [ANXA3_Y295]

1: 0.447; 2: 2.36; 3: 0.402; 4: 0.538; 5: 1.57

---

target: FGFR1 (UniProt P11362); test: phosphorylation enrichment, bacterial display (enrichment ratio); higher = better substrate or ligand; peptides without Tyr show the background
Sequence (P11362 whole entry, looked up): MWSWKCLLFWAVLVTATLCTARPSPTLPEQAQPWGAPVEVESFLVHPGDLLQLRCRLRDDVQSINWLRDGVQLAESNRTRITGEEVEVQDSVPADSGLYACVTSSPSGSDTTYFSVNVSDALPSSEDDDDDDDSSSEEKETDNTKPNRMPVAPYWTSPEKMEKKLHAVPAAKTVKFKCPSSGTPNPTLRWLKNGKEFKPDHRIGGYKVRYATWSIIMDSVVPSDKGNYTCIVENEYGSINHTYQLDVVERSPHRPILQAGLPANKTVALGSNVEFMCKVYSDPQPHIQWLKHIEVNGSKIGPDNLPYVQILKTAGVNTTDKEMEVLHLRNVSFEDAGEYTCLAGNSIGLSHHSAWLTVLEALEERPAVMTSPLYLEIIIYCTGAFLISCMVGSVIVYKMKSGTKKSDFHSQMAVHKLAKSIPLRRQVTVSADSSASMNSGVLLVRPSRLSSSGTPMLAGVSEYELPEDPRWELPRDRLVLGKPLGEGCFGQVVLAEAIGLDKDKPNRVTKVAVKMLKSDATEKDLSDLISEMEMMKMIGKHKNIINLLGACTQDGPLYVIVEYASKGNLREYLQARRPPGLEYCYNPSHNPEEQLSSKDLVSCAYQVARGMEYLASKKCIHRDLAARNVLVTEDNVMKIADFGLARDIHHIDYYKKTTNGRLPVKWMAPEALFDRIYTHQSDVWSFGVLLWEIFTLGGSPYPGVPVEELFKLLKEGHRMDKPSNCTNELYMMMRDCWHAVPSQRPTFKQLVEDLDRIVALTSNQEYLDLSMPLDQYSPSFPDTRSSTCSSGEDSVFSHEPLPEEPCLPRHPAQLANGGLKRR
readout-label: phosphorylation enrichment

Here is how some sequences turned out for phosphorylation enrichment.
sequence-string	phosphorylation enrichment
KFWREYILSLE [GPC3_Y299_YF]	0.478
CGLPRYRWLTH [TSPAN12_Y143_Y138C]	0.435
VAFVYYKSIGP [ADGRL4_Y302]	0.656

Fill in phosphorylation enrichment for each of the 7 sequences listed.
1. FSTDCYRVGGH [NTRK2_Y707_Y706C_YF]
2. RGRSTYYWPRP [GAGE12J_Y9]
3. PNLILYGDFRQ [MYH7_Y715_R712L]
4. QLAPQYTFTQG [FLNA_Y1761_A1764T_YF]
5. SLIDMYSKVLD [OPA1_Y268_E270K]
6. KASIMYPSSNC [CXCL11_Y52_N55S]
7. RRVLVYGDRGA [QDPR_Y16_G18D]

1. 0.599
2. 0.742
3. 0.552
4. 0.918
5. 0.479
6. 0.455
7. 0.413

Parameters: items (list). Returns: phosphorylation enrichment for each item.
1. YALAEYTEVKT [ALDH1A3_Y497]
2. DTLLEYLENPK [CYCS_Y68_M66L]
3. NTVLGYFIGRI [GARS1_Y408]
4. ISPPVYLTNEW [NRK_Y885]

[1.73, 0.503, 0.443, 0.704]

Quick batch: phosphorylation enrichment for everything below.
1. EMTAEYTCTRK [ACAD9_Y325_A326T]
2. KGRAGYTTVAV [RET_Y752]
3. ISIFFYAKGQP [MPZ_Y82_H81Y_YF]
4. HICTAYKLVLA [DHCR24_Y190_E191K]
5. TTPYNYSYIFK [RAB14_Y8_A4T]
6. LDLSYYHTSSS [EMD_Y182_P183H]

0.654
0.309
0.544
2.66
1.24
1.11

---

Can you tell me phosphorylation enrichment for the items I'm about to list?
system: AncSZ; assay: phosphorylation enrichment, bacterial display (enrichment ratio); higher = better substrate or ligand; peptides without Tyr show the background

Examples with answers:
sequence-string	value-reported
ENKGVYVLMSG [IVD_Y277]	1.2
DAVKHYMQFRK [CNGA2_Y395]	0.46
VDEERYDIEGK [TNNI3_Y112_A116G]	1.44
PTDCVYVMPTV [MYO7A_Y1668_S1666C]	5.31
TAIFIYIRPKA [OR10C1_Y258_L255I]	1.79
GGFTRYCDGKK [PROS1_Y266_C265R_YF]	0.771
DFFDLYGGEKK [PTPN11_Y66_F71K_YF]	1.17
LVSCTYQLARG [FGFR2_Y608]	1.23
YRRITYYNWRH [PDE6B_Y556_H557Y]	0.64
PPNSPYIGSSP [KCNT1_Y740]	0.501

Batch request: phosphorylation enrichment per item, same order as input.
1. SFCFRYRCAAR [SUMF1_Y344_YF]
2. SFSGEYGSGGG [ZG16_Y30_G32S_YF]
3. LARDMHDKEFF [MET_Y1230_Y1230H_YF]
4. ISSLPYMKMIF [SLC4A11_Y853_M848I]

0.772
0.556
1.08
1.05

// input: 7 sequences below; output: phosphorylation enrichment for each
1. SDLTDYLMKIL [ACTA1_Y190_R185S]
2. IQKWEYVPLGT [FAH_Y244_P249T]
3. RLLRGHDQFAF [HLA-B_Y137_YF]
4. GLSAPYVKIHL [SYT2_Y309_D307A]
5. RDLHTYIMPAH [PNMT_Y256_R254H]
6. IIRQLYLKWHP [SACS_Y4333_R4331Q]
7. QVMDGYPMPIG [MMP14_Y353]

[1.14, 0.954, 0.388, 0.747, 1.61, 0.888, 0.861]

Batch lookup, phosphorylation enrichment per entry.
1. FEEDSYVKRSQ [RET_Y905_YF]
2. VASSLYDIFAR [GLB1_Y294_L297F]
3. NKFVAYIESQG [KDM4B_Y34_YF]
4. FTHSDYQFSQR [PKP2_Y166_YF]
5. SELVRYDARVH [MET_Y971]
6. GLRSYYETSKM [MAGED2_Y449]
7. GGYNNYGYGND [HNRNPH3_Y159]
8. RNYGTYTAGLS [RHBDD1_Y264_D262G]

1. 0.904
2. 1.09
3. 0.899
4. 0.828
5. 0.595
6. 0.592
7. 0.802
8. 0.781

Answer for every listed entry: what is its phosphorylation enrichment? The entries follow.
1. LKEIRYPPFTD [ALDH3B2_Y362_H361R_YF]
2. FDSPFYQDSLP [TSC1_Y508_R509Q]
3. KDFNKYVAFIE [KDM4B_Y31_YF]
4. LGGAMYYLEAD [PKHD1_Y452_E457D]
5. YIPFRYPKEFQ [IDS_Y234_H229Y]

2.71
0.848
0.799
1.39
0.777
